assay: Cytotoxicity in mammalian cells (MTT assay); conditions: human, HFF cells
quantity name: CC50 at 72 h

Looking for the measured CC50 at 72 h of Nc1nc2nc[nH]c2c(=S)[nH]1 [Compound 6, Tioguanine] , can you help?
> 50 µM

Looking for the measured CC50 at 72 h of CCc1nc(N)nc(N)c1-c1ccc(Cl)cc1 [Compound 30, Pyrimetamine] , can you help?
> 50 µM

Looking for the measured CC50 at 72 h of CCC(C)n1ncn(-c2ccc(N3CCN(c4ccc(OCC5COC(Cn6cncn6)(c6ccc(Cl)cc6Cl)O5)cc4)CC3)cc2)c1=O (stereo not drawn) [Compound 5, Itraconazole] , can you help?
> 50 µM
